Tested on: BT-549
Test: NCI tumour cell line growth inhibition, 48 h
Active and inactive are the calls of the source. Cut-off read from the data, not from the text of the source: active = GI50 up to about 1.1 µM and inactive = higher.
Outcomes: active, inactive

>  <compound>
COc1ccc2c(c1)CCC1=CC3(CCC12C)SCCS3 (stereo unspecified)

>  <class_name>
inactive

$$$$
>  <compound>
CC(C)CNC(=O)O

>  <class_name>
inactive

$$$$
>  <compound>
COc1cc(S(=O)(=O)Nc2ccc(-c3csc(N4C(=O)C(Cl)C4c4cccs4)n3)cc2)ccc1Cl (stereo unspecified)

>  <class_name>
inactive

$$$$
>  <compound>
NC(C(F)(F)F)(C(F)(F)F)P(=O)(Cc1ccccc1)Cc1ccccc1

>  <class_name>
inactive

$$$$
>  <compound>
CCC(=O)Nc1ncnc2ncn(C(=O)CC)c12

>  <class_name>
inactive

$$$$
>  <compound>
O=[N+]([O-])C(=C/C1CCCCC1)/C(=C\C1CCCCC1)[N+](=O)[O-]

>  <class_name>
inactive

$$$$
>  <compound>
CCCc1nc(Cl)c(Cl)c(Cl)n1

>  <class_name>
inactive

$$$$
>  <compound>
CCCCCCCCP(=O)(O)OP(=O)(O)OCC1OC(n2ccc(N)nc2=O)C(O)C1O (stereo unspecified)

>  <class_name>
inactive

$$$$
>  <compound>
CC1=NN(c2cc(Cl)c(S(=O)(=O)O)cc2Cl)C2(C1)C(Cl)C(=O)N2c1nc2ccccc2s1 (stereo unspecified)

>  <class_name>
inactive

$$$$
>  <compound>
Cc1nc(N)c(N2CCN(Cc3ccccc3)CC2)c(O)n1

>  <class_name>
inactive

$$$$
>  <compound>
COc1ccc(N2CCN(c3ccc4c(c3)NCC(=O)N4)CC2)cc1

>  <class_name>
inactive

$$$$
>  <compound>
O=P1(Oc2ccc(Cl)cc2)OCCS1 (stereo unspecified)

>  <class_name>
inactive

$$$$
>  <compound>
Cc1c(C(=O)O)n2c(C)nnc2c2ccccc12

>  <class_name>
inactive

$$$$
>  <compound>
COCCCN(Cc1cc(OC)c(OC)c(OC)c1)C(=S)Nc1cccc(Cl)c1

>  <class_name>
inactive

$$$$
>  <compound>
COC(=O)c1c(C#C[Si](C)(C)C)c(C#C[Si](C)(C)C)c(C#C[Si](C)(C)C)c(C#C[Si](C)(C)C)c1C(=O)OC

>  <class_name>
inactive

$$$$
>  <compound>
COc1cccc(/N=N/C(=N/NC(=O)c2ccc(C)cc2)c2ccc(N(CCC#N)CCC#N)cc2OC)c1

>  <class_name>
inactive

$$$$
>  <compound>
CC[C@](O)(CC(=O)O[C@H]1C(=O)O[C@@H]2C[C@H]3C(C)=CC(=O)[C@@H](O)[C@]3(C)[C@H]3[C@@]4(O)OC[C@]32[C@@H]1[C@@H](C)[C@H]4O)C(C)C

>  <class_name>
active

$$$$
>  <compound>
Nc1nc(Cl)cc(Nc2cc(Cl)cc(Cl)c2)n1

>  <class_name>
inactive

$$$$
>  <compound>
COc1cc(C2C3=C(COC3=O)OC(C)(C)Oc3cc4c(cc32)OCO4)cc(OC)c1O (stereo unspecified)

>  <class_name>
inactive

$$$$
>  <compound>
C=CCN1C(=O)/C(=C/c2cccs2)N=C1SC1OC(COC(=O)c2ccccc2)C(OC(=O)c2ccccc2)C1OC(=O)c1ccccc1 (stereo unspecified)

>  <class_name>
inactive

$$$$
>  <compound>
COC(=O)c1ccccc1C1CN=NC12Cc1cc(C)ccc1C2=O (stereo unspecified)

>  <class_name>
inactive

$$$$
